Taken from patent US20200262877A1.

molecular target: Kir2.1 (Homo sapiens); construct: host or cells: HEK293 or CHO; assay: Ion channel panel (IonWorks Barracuda): Kir2.1; type: cell-based; settings: peptide at 20 μM; 100% = no change, <100% = inhibition
Sequence (P63252 whole entry): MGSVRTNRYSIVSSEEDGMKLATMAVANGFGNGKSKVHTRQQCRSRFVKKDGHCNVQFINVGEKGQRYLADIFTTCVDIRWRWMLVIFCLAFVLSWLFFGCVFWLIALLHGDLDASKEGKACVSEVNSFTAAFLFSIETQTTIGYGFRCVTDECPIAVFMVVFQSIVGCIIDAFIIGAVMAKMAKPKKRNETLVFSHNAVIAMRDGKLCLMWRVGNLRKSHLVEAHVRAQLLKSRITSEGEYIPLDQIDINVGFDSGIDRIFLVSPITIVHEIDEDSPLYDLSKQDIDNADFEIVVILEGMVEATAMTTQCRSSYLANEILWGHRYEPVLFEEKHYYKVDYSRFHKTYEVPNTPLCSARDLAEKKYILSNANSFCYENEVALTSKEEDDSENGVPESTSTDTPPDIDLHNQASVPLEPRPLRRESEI
Label Criterion met for high-side Activity of Kir2.1 with peptide (percentage of the reference compound) (at or above 90%) and Criterion not met for low-side Activity of Kir2.1 with peptide (percentage of the reference compound) (below it).

substance	group
32 (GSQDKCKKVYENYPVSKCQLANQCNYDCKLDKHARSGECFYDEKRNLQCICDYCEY) [compound 32]	Criterion not met
14 (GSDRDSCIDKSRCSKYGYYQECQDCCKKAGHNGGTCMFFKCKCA) [compound 14]	Criterion not met
6 (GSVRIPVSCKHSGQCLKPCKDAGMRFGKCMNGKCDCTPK) [compound 6]	Criterion met
30 (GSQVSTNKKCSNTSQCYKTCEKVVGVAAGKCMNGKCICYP) [compound 30]	Criterion met
12 (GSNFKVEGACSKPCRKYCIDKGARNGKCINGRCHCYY) [compound 12]	Criterion met
20 (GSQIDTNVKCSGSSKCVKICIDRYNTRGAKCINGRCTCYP) [compound 20]	Criterion met
39 (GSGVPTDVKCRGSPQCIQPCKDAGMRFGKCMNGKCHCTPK) [compound 39]	Criterion met

# next substance below
Qu. Determine whether this substance has Activity of Kir2.1 with peptide (percentage of the reference compound) no lower than 90%: 17 (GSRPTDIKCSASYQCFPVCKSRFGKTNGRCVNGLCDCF) [compound 17]
Ans. Criterion not met

---

Target: Kv2.1 (Homo sapiens)
Construct: host or cells: HEK293 or CHO
Sequence (Q14721 whole entry): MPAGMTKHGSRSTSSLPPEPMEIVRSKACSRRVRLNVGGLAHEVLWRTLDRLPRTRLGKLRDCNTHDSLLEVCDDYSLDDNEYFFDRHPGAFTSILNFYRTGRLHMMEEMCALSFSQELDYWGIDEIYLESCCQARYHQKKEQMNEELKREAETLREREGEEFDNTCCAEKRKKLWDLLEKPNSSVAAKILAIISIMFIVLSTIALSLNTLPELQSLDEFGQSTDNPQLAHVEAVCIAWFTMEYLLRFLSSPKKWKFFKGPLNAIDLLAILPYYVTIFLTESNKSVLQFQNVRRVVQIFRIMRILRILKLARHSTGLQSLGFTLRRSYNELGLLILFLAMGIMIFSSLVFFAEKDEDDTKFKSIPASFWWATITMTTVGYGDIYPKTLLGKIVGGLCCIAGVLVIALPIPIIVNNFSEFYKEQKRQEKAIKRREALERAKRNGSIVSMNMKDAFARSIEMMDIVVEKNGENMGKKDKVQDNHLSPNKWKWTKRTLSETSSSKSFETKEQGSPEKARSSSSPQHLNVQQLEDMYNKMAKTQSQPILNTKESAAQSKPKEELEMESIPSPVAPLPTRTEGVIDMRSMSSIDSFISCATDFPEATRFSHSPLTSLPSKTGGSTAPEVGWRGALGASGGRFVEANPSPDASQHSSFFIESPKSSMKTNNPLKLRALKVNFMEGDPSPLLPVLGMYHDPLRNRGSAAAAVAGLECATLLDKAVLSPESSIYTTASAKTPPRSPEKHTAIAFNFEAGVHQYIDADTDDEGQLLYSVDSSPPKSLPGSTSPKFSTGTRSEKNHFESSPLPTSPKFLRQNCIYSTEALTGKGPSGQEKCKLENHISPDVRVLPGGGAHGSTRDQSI
Test: cell-based
Settings: peptide at 20 μM; 100% = no change, <100% = inhibition
Method: This example describes a method for assaying ion channel activity in cells. Peptides were screened in duplicate at final concentrations of 20 μM and 200 nM, as determined by amino acid analysis, and diluted into HEPES buffered physiological saline (HBPS). HEK293 or CHO cells from the American Type Culture Collection (ATCC) were transfected with the appropriate ion channel before use. […]
Activity of Kv2.1 with peptide (percentage of the reference compound) values by entry
Write the number in % without appending the unit.

Solved entries:
substance	unit-string	result
12 (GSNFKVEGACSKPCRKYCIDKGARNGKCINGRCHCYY) [compound 12]	%	113
5 (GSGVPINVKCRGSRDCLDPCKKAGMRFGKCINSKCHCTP) [compound 5]	%	109
20 (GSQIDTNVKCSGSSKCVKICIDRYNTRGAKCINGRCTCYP) [compound 20]	%	97
11 (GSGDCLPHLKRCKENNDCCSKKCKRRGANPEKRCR) [compound 11]	%	110
10 (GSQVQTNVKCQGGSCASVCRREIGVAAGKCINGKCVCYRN) [compound 10]	%	109
6 (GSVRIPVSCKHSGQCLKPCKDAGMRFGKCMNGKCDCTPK) [compound 6]	%	124

Qu. Quick one: Activity of Kv2.1 with peptide (percentage of the reference compound) of 18 (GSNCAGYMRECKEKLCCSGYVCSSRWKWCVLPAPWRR) [compound 18] ?
Ans. 65

Qu. Quick one: Activity of Kv2.1 with peptide (percentage of the reference compound) of 14 (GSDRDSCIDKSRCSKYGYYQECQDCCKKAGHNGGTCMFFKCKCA) [compound 14] ?
Ans. 93

Qu. Quick one: Activity of Kv2.1 with peptide (percentage of the reference compound) of 15 (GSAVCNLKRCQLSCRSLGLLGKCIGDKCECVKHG) [compound 15] ?
Ans. 88
